Measured kinase still bound, per cent of control accompanies every entry in the list below.
- assayed-system: CDK4 CCND1 (human) (UniProt P11802+P24385)
- Sequence (P11802 whole entry, looked up): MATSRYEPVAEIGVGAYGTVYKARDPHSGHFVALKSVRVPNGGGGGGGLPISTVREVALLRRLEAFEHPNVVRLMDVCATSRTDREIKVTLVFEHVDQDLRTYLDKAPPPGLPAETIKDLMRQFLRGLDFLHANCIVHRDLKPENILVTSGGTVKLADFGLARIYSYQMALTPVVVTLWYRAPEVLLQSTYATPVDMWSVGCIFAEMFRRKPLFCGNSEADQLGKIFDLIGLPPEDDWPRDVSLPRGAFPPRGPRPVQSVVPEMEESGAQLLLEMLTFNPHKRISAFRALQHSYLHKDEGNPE
- Sequence (P24385 whole entry, looked up): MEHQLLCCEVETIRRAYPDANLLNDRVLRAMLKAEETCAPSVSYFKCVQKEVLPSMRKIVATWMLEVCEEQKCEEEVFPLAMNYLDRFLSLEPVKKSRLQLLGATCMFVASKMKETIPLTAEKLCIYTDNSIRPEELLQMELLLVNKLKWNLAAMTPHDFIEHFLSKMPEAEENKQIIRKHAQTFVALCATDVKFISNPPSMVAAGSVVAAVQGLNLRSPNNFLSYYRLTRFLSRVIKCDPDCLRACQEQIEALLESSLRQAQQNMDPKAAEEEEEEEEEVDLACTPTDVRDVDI
- experiment: KINOMEscan competition binding
- condition-set: compound 10.0 µM
Answer with a number only, understood to be in %.

Worked set:
Cc1cc([C@@H](C)Nc2ccccc2C(=O)O)c2nc(N3CCOCC3)cc(=O)n2c1	100
O=C(O)c1ccc(Nc2ncc3c(n2)-c2ccc(Cl)cc2C(c2c(F)cccc2F)=NC3)cc1	98

Here is another molecule to look at.
Supply kinase still bound, per cent of control value. Item: "O=C(NC1CC1)c1cccc(-c2ccc3c(NC(=O)C4CC4)n[nH]c3c2)c1"
94

---

Measured kinase still bound, per cent of control accompanies every entry in the list below.
- assayed-system: CAMKK2 (human) (UniProt Q96RR4)
- Sequence (Q96RR4 whole entry, looked up): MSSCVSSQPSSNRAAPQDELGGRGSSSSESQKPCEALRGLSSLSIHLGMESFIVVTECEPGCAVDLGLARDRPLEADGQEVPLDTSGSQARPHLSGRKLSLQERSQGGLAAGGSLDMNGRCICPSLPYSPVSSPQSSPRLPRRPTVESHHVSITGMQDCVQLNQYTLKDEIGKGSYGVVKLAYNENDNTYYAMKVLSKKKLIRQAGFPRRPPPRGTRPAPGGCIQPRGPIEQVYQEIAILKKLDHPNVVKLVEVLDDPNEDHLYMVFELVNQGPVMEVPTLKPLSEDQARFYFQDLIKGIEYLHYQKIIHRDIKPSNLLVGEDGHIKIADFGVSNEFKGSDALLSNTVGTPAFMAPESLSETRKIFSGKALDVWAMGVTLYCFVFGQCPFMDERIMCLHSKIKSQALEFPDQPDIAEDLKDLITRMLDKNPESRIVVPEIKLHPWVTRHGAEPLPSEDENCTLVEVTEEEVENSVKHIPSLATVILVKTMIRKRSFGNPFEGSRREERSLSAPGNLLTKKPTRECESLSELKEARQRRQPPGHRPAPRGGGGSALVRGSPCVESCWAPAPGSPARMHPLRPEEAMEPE
- experiment: KINOMEscan competition binding
- condition-set: compound 10.0 µM
Answer with a number only, understood to be in %.

Worked set:
CCN1CCN(Cc2ccc(Nc3ncc4c(n3)N(C)c3ccccc3C(=O)N4C)cc2C(F)(F)F)CC1	47
CN(C)C/C=C/C(=O)Nc1cccc(Nc2ncc3c(n2)N(C)c2ccccc2C(=O)N3C)c1	8.1
CCOc1cc2ncc(C#N)c(Nc3ccc(OCc4ccccn4)c(Cl)c3)c2cc1NC(=O)/C=C/CN(C)C	89
C=CC(=O)Nc1cc(NC(=O)c2ccc(C)c(NC(=O)c3ccno3)c2)cc(C(F)(F)F)c1	69
O=C(O)c1ccc(Nc2ncc3c(n2)-c2ccc(Cl)cc2C(c2c(F)cccc2F)=NC3)cc1	72
COc1cc(C(=O)NC2CCN(C)CC2)ccc1Nc1ncc2c(n1)N(C1CCCC1)C(C)CC(=O)N2C (stereo unspecified)	24
CCC(=O)N1CCN(c2ccc(-n3c(=O)ccc4cnc5ccc(-c6cnc7ccccc7c6)cc5c43)cc2C(F)(F)F)CC1	85
Cc1cc([C@@H](C)Nc2ccccc2C(=O)O)c2nc(N3CCOCC3)cc(=O)n2c1	100

Supply kinase still bound, per cent of control value. Item: "COc1cc(C(=O)NC2CCN(C)CC2)ccc1Nc1ncc2c(n1)N(C1CCCC1)CCC(=O)N2C(C)C"
100

Supply kinase still bound, per cent of control value. Item: "Nc1ccc(-c2ccc3ncc4ccc(=O)n(-c5cccc(C(F)(F)F)c5)c4c3c2)cn1"
99

Supply kinase still bound, per cent of control value. Item: "C[C@@H](Oc1cc(-n2cnc3ccc(CN4CCN(C)CC4)cc32)sc1C(N)=O)c1ccccc1C(F)(F)F"
66

Supply kinase still bound, per cent of control value. Item: "Cc1ccc2nc(NCCN)c3ncc(C)n3c2c1"
93

Supply kinase still bound, per cent of control value. Item: "CCCS(=O)(=O)Nc1ccc(F)c(C(=O)c2c[nH]c3ncc(-c4ccc(Cl)cc4)cc23)c1F"
100

---

- assayed-system: MARK4 (human) (UniProt Q96L34)
- Sequence (Q96L34 whole entry, looked up): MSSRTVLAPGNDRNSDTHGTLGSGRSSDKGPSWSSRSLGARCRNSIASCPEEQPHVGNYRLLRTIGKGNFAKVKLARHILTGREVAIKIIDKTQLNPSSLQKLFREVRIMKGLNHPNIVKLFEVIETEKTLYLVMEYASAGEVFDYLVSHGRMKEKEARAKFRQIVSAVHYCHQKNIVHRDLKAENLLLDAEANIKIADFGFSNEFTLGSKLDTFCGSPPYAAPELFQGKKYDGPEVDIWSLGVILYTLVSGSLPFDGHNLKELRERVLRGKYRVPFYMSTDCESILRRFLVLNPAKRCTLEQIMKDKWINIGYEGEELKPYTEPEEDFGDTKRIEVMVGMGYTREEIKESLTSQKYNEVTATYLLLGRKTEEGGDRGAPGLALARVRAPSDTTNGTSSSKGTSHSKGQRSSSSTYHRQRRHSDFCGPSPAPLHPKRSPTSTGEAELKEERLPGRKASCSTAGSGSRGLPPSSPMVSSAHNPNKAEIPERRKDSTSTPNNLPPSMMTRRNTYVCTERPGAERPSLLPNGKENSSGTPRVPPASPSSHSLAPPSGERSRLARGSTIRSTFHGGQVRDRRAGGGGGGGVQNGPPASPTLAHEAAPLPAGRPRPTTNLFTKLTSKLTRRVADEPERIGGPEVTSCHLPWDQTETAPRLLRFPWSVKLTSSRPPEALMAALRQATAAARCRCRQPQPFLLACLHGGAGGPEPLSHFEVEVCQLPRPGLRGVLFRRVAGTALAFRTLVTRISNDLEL
- experiment: KINOMEscan competition binding
- condition-set: compound 10.0 µM
result-type: kinase still bound, per cent of control (%)
Answer with a number only, understood to be in %.

Worked set:
CN(C)C/C=C/C(=O)Nc1cccc(Nc2ncc3c(n2)N(C)c2ccccc2C(=O)N3C)c1	1.5
CCCS(=O)(=O)Nc1ccc(F)c(C(=O)c2c[nH]c3ncc(-c4ccc(Cl)cc4)cc23)c1F	100
O=C(O)c1ccc(Nc2ncc3c(n2)-c2ccc(Cl)cc2C(c2c(F)cccc2F)=NC3)cc1	100
C=CC(=O)Nc1cccc(Nc2nc(N[C@H]3CC[C@H](N(C)C)CC3)nc3c2ncn3C(C)C)c1	94
CCN1CCN(Cc2ccc(Nc3ncc4c(n3)N(C)c3ccccc3C(=O)N4C)cc2C(F)(F)F)CC1	19
OCCCNc1cc(-c2ccnc(Nc3cccc(Cl)c3)n2)ccn1	100
Cn1c(=O)n(-c2ccc(C(C)(C)C#N)cc2)c2c3cc(-c4cnc5ccccc5c4)ccc3ncc21	100
Cc1ccc(NC(=O)c2cccc(C(C)(C)C#N)c2)cc1Nc1ccc2ncn(C)c(=O)c2c1	100
COc1cc(C(=O)NC2CCN(C)CC2)ccc1Nc1ncc2c(n1)N(C1CCCC1)C(C)CC(=O)N2C (stereo unspecified)	100
C[C@@H](Oc1cc(-n2cnc3ccc(CN4CCN(C)CC4)cc32)sc1C(N)=O)c1ccccc1C(F)(F)F	100

Please report the measured kinase still bound, per cent of control for "O=C1Nc2ccc(I)cc2/C1=C/c1cc(Br)c(O)c(Br)c1" tested on MARK4 (human) (UniProt Q96L34).
100

Please report the measured kinase still bound, per cent of control for "COc1cc(N2CCN(C)CC2)ccc1Nc1nc(N)c(C(=O)c2c(Cl)cccc2Cl)s1" tested on MARK4 (human) (UniProt Q96L34).
82

Please report the measured kinase still bound, per cent of control for "CCOc1cc2ncc(C#N)c(Nc3ccc(OCc4ccccn4)c(Cl)c3)c2cc1NC(=O)/C=C/CN(C)C" tested on MARK4 (human) (UniProt Q96L34).
87

Please report the measured kinase still bound, per cent of control for "Cc1cc([C@@H](C)Nc2ccccc2C(=O)O)c2nc(N3CCOCC3)cc(=O)n2c1" tested on MARK4 (human) (UniProt Q96L34).
100

Please report the measured kinase still bound, per cent of control for "Cc1ccc2nc(NCCN)c3ncc(C)n3c2c1" tested on MARK4 (human) (UniProt Q96L34).
100

Please report the measured kinase still bound, per cent of control for "COc1cc(C(=O)NC2CCN(C)CC2)ccc1Nc1ncc2c(n1)N(C1CCCC1)CCC(=O)N2C(C)C" tested on MARK4 (human) (UniProt Q96L34).
0

Origin of values: the kinase profiling compilation of Christmann-Franck et al. (2016)
